Test: Tmax determined after 0.3 mg/kg oral administration in potassium oxonate treated rats
Format: ADME, organism-based
Design: dose 0.3 mg/kg, route oral
Conditions: rat, in vivo
Tmax values for the compounds below.
The answer is to be given in h; state only the numeric part.

CC(C)COc1ccc(-n2cc(C(=O)O)cn2)cc1C#N = 1.1

# next compound below
`CC(C)(C)COc1ccc(-n2cc(C(=O)O)cn2)cc1C#N` yielded Tmax of 3.5

###

Target: Xanthine dehydrogenase/oxidase (Bos taurus)
Sequence (P80457 whole entry): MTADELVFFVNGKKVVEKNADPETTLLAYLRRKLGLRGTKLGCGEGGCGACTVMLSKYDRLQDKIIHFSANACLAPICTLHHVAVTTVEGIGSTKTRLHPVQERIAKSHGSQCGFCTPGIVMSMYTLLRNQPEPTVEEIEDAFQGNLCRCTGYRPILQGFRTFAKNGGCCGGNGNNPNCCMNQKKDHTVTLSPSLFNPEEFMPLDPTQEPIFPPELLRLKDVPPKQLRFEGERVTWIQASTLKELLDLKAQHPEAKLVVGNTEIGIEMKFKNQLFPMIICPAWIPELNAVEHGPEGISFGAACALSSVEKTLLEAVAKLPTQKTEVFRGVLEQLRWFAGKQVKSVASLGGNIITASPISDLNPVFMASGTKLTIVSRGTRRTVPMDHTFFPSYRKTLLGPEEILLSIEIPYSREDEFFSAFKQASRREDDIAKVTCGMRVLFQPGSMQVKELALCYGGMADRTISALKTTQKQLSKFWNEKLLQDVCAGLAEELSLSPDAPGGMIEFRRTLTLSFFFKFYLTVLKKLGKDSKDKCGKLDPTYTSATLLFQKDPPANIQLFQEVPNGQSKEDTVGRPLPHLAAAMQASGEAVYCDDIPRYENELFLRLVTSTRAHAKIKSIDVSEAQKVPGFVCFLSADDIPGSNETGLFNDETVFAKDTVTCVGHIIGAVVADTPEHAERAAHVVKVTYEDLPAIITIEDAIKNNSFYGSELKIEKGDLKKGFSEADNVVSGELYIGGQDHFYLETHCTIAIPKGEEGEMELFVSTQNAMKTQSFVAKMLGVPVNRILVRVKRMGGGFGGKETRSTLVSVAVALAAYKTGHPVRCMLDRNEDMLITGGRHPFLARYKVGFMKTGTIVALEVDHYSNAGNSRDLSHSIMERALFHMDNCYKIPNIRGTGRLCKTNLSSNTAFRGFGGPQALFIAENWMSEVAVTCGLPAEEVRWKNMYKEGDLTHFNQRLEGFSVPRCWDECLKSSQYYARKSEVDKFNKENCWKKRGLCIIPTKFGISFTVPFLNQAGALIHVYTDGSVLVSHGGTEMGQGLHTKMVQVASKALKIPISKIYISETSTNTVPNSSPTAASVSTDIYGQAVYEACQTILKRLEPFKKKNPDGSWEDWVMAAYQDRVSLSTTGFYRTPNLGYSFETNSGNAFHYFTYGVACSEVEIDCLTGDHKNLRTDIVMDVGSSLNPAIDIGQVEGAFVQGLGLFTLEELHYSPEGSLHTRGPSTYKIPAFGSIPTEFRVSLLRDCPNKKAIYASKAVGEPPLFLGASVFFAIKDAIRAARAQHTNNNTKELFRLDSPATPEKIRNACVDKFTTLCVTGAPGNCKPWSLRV
Measure name: pIC50
# reply with the number alone; pIC50 is -log10 of concentration in mol/L

So the reported pIC50 for `COc1ccc(-n2cc(C(=O)O)cn2)cc1C#N` , on Xanthine dehydrogenase/oxidase (Bos taurus), turned out to be 6.34
